# testTarget: T1, Mis12–Nnf1 complex (full-length Mis12 and full-length Nnf1) (S. pombe, UniProt Q9Y738 1-259; Q09858 1-205)
# T1 sequence (looked up) 1: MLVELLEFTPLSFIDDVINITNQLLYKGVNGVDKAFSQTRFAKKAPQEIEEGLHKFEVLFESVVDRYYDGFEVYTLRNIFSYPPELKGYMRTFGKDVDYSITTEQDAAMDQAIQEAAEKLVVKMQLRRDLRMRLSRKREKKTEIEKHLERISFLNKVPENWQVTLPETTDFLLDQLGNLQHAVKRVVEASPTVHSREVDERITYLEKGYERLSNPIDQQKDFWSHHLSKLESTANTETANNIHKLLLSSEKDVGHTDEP
# T1 sequence (looked up) 2: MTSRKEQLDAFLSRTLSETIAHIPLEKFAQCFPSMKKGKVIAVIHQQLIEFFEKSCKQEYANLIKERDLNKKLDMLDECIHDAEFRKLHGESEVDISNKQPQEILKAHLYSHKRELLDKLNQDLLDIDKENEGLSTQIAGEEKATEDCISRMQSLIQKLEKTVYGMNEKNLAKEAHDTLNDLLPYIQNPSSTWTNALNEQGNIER
# protocol: ITC
Square brackets hold non-standard residues; d marks the D form. Ends that are not written are not given here. pT = C[C@@H](OP(=O)(O)O)[C@H](N)C(=O)O
assayReadout: Kd (µM)
// note: answer is a bare numeric in µM

| binder | Kd [µM] |
| --- | --- |
| RK[pT]GFTVPRDVKKGDDGFEDMDAYFLS (peptide, UniProt Q9USR9 26-52, looked up) [Cnp3(26–52)^pT28 peptide] | 92 |

Now for a further binder.
Query: Note Kd for the binder shown: RKTGFTVPRDVKKGDDGFEDMDAYFLS (peptide, UniProt Q9USR9 26-52, looked up) [Cnp3(26–52) peptide]
Response: 12.6
